# TGT: UniProt P62942
# Sequence (P62942 whole entry): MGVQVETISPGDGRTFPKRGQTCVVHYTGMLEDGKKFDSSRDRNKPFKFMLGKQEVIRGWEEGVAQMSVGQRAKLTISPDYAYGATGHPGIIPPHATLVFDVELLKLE
pKi: −log10 of the molar value.
Threshold rule: pKi greater than or equal to 7 is Met; below that, Not met.

* COc1cc(C(=O)C(=O)N2CCCC[C@H]2C(=O)OC(CCCc2ccccc2)c2cccc(CO)c2)cc(OC)c1OC (some centres unmarked) [Compound 37] | Met
* COc1ccc(CCC(CCCc2ccccc2)OC(=O)[C@@H]2CCCCN2C(=O)C(=O)c2ccccc2)cc1 (some centres unmarked) [Compound 14] | Not met
* COc1ccc(CCCC(CCCc2ccccc2)OC(=O)[C@@H]2CCCCN2C(=O)C(=O)c2cc(OC)c(OC)c(OC)c2)cc1 (some centres unmarked) [Compound 17] | Met
* COc1cc(C(=O)C(=O)N2CCCC[C@H]2C(=O)OC(CCCc2ccccc2)/C(C)=C/[C@H]2CC[C@H](O)CC2)cc(OC)c1OC (mixture of isomers) [Compound 8] | Met
* COc1cc(C(=O)C(=O)N2CCCC[C@H]2C(=O)OC(CCCCc2ccccc2)CCCc2cccs2)cc(OC)c1OC (some centres unmarked) [Compound 40] | Not met
* COc1cc(C(=O)C(=O)N2CCCC[C@H]2C(=O)OC(CCCc2ccccc2)CCCc2cccc(C(=O)O)c2)cc(OC)c1OC (some centres unmarked) [Compound 36] | Met
* CC(C)Oc1cccc(C(=O)C(=O)N2CCCC[C@H]2C(=O)OC(CCCc2ccccc2)CCCc2cccnc2)c1 (some centres unmarked) [Compound 29] | Met
* COc1cc(C(=O)C(=O)N2CCCC[C@H]2C(=O)OC(CCCc2ccccc2)CCCc2cccc(CO)c2)cc(OC)c1OC (some centres unmarked) [Compound 35] | Met
* COc1cc(C(=O)C(=O)N2CCCC[C@H]2C(=O)OC(CCCc2ccccc2)Cc2ccccc2)cc(OC)c1OC (some centres unmarked) [Compound 10] | Met
* COc1cc(C(=O)C(=O)N2CCCC[C@H]2C(=O)OC(CCCc2ccccc2)c2cccc(Oc3ccccc3)c2)cc(OC)c1OC (mixture of isomers) [Compound 4] | Not met

# credit: patent EP0584223B1
